Reference source for all entries: paper PMC13672995

Reported MIC (μM) against C. sojina, Fungicide resistant, Cs350 values for a set of compounds
- Tested on: C. sojina QoI fungicide-resistant isolate Cs350
- Assay type: cell-based, Cercospora sojina
- condition_description: 48 h
Where a SMILES comes first, the peptide text is derived from it.
readout_type: MIC (μM) against C. sojina, Fungicide resistant, Cs350 (µM)

| compound | output_unit | test_value |
| --- | --- | --- |
| N=C(N)NCCC[C@H](NC(=O)[C@H](CS)NC(=O)[C@H](Cc1c[nH]c2ccccc12)NC(=O)[C@H](Cc1ccccc1)NC(=O)[C@H](CCCCN)NC(=O)[C@@H](N)CCCCN)C(=O)N[C@@H](CCCCN)C(=O)N1CCC[C@H]1C(=O)N[C@@H](CCCCN)C(=O)N[C@@H](Cc1c[nH]c2ccccc12)C(=O)N1CCC[C@H]1C(=O)N[C@@H](CCCCN)C(=O)N[C@@H](CS)C(=O)O [NCR13_V9] (H-KKFWCRKPKWPKC-OH; N-terminus and C-terminus assumed) | µM | 6 |
| CC[C@H](C)[C@H](NC(=O)[C@H](CCCNC(=N)N)NC(=O)[C@H](CS)NC(=O)[C@H](CCCNC(=N)N)NC(=O)CNC(=O)[C@@H](N)CO)C(=O)N[C@@H](CC(C)C)C(=O)N[C@@H](Cc1ccccc1)C(=O)N[C@@H](CCCNC(=N)N)C(=O)N[C@@H](Cc1c[nH]c2ccccc12)C(=O)N[C@@H](Cc1ccc(O)cc1)C(=O)N[C@@H](Cc1ccccc1)C(=O)N[C@H](C(=O)N[C@@H](CCCCN)C(=O)N[C@@H](CC(N)=O)C(=O)N[C@@H](CS)C(=O)O)[C@@H](C)O [GMA1C_V3] (H-SGRCRILFRWYFTKNC-OH) | µM | 6 |
